# Test system: KRas Q61H mutant
# assay info: Ras GTP Binding Domain Inhibition Assay (Ras Superfamily Assay)
# test parameters: 20 μM compound, without SOS
measurement type: KRas Q61H mutant: % inh.

Some entries whose results are on file:
molecule	experimental target	recorded value
COC[C@@H]1CC[C@@H]1CNc1nc(-c2ccccn2)nn2cc(-c3ccn(C(C)C)n3)c(C)c12 (racemic) [Compound 11]	KRas Q61H mutant	A (A = 1-25% inhibition)
COC1CCCN(c2nc(-c3ccccn3)nn3cc(-c4ccn(C(C)C)n4)c(C)c23)C1 (racemic) [Compound 12]	KRas Q61H mutant	0 (0 = 0% inhibition)
Cc1c(-c2ccn(C(C)C)n2)cn2nc(-c3nccn3C)nc(Nc3noc(C4CC4)n3)c12 [Compound 75]	KRas Q61H mutant	A (A = 1-25% inhibition)
COc1cccc(-c2cn3nc(-c4nccn4C)nc(O)c3c2-c2ccccc2)c1Cl [Compound 28]	KRas Q61H mutant	A (A = 1-25% inhibition)
COC[C@@H]1CC[C@@H]1CNc1nc(-c2ccccn2)nn2cc(-c3ccn(C(C)C)n3)c(-c3ccccc3)c12 (racemic) [Compound 26]	KRas Q61H mutant	A (A = 1-25% inhibition)
COC[C@@H]1CC[C@@H]1CNc1nc(-c2nccn2C)nn2cc(-c3ccn(C(C)C)n3)c(C)c12 (racemic) [Compound 3]	KRas Q61H mutant	0 (0 = 0% inhibition)

Qu. What KRas Q61H mutant: % inh. appears in the records for this molecule with KRas Q61H mutant? COCCCNc1nc(-c2nccn2C)nn2cc(-c3cccc(OC)c3Cl)c(-c3ccccc3)c12 [Compound 30]
Ans. 0 (0 = 0% inhibition)

Qu. What KRas Q61H mutant: % inh. appears in the records for this molecule with KRas Q61H mutant? Cn1ccnc1-c1nc(OCCN2CCCC2)c2c(-c3ccccc3)ccn2n1 [Compound 41]
Ans. 0 (0 = 0% inhibition)

Source listed as patent US12459951B2.
